Data credit: patent US20210292414A1

- SYSTEM NAME: T1, hRim
- T1 chimeric human/tetraodon Sortilin extracellular region, BAP tag: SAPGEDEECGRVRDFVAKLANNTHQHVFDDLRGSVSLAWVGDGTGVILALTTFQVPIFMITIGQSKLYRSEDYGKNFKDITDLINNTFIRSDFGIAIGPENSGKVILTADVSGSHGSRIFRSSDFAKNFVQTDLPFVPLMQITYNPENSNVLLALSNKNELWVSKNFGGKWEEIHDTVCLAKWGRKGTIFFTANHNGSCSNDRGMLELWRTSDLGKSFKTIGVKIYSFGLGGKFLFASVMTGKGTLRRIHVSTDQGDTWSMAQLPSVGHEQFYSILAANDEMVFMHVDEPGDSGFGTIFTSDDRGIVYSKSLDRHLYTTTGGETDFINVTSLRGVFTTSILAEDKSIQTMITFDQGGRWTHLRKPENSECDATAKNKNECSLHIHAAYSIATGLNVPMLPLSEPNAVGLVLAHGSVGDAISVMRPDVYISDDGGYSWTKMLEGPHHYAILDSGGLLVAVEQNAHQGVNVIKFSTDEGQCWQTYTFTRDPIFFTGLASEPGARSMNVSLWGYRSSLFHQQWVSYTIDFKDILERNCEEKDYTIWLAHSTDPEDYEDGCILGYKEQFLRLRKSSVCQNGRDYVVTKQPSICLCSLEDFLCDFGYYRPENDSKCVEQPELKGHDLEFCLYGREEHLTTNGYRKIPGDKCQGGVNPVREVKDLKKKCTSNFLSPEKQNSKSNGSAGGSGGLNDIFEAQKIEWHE
- ASSAY METHOD TEXT: BLI (Octet384RED)
QUANTITY KIND: EC50

Look over these answered cases.
Antibody 6003-028 (antibody, human IgG1, V domains shown) VH: EVQLLESGGGLVQPGGSLRLSCAASGFTFSSYAMSWVRQAPGKGLEWVSTISGRGGSTYYADSVKGRFTISRDNSKNTLYLQMNSLRAEDTAVYYCANLYSNYWYFDLWGRGTLVTVSS VL: EIVLTQSPATLSLSPGERATLSCRASQSVSSFLAWYQQKPGQAPRLLIYDASNRATGIPARFSGSGSGTDFTLTISSLEPEDFAVYYCQQRSNWPLTFGGGTKVEIK
2.04 ng/mL
IgG1-6003-408 (antibody, V domains shown, also called Antibody 6003-408) VH: EVQLVESGGGLVKPGGSLRLSCAASGFTFSSYSMNWVRQAPGKGLEWVSSISSSSSYIYYADSVKGRFTISRDNAKNSLYLQMNSLRAEDTAVYYCARRRIAAAGTGYGAFDIWGQGTMVTVSS VL: ARQLTQSPSSLSASVGDRVTITCRASQGITSALAWYQQKPGKVPKLLIYDASSLESGVPSRFSGSGSGTDFTLTISSLQPEDFATYYCQQFNGYPMFSFGQGTKLEII
2.78 ng/mL
Antibody 6003-030 (antibody, human IgG1, V domains shown, Human antibody (HuMab); also called antibody 30; mAb30) VH: EVQVLESGGGLVQPGGSLRLSCAASGFTFSSYAMSWVRQAPGKGLEWVSTISGRGGNTYYADSVKGRFTISRDNSKNTLYLQMDSLRAEDTAVYYCAIIPSLYWYFDLWGRGTLVTVSS VL: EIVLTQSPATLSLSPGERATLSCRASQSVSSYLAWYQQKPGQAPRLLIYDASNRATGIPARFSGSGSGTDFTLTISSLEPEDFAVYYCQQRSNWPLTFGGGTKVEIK
0.86 ng/mL
Antibody 6003-1286 (antibody, human IgG1, V domains shown) VH: EVQLLESGGGLVQPGGSLRLSCAASGFTFSSYAMSWVRQAPGKGLEWVSTISGRGGNTYYADSVKGRFTISRDNSKNTLYLQMNSLRAEDAAVYYCANIYSHYWYFDLWGRGTLVTVSS VL: EIVLTQSPATLSLSPGERATLSCRASQSVNSYLAWYQQKPGQAPRLLIYDASNRATGIPARFSGSGSGTDFTLTISSLEPEDFAVYYCQQRSNWPLTFGGGTKVEIK
1.05 ng/mL
Antibody 6003-056 (antibody, human IgG1, V domains shown) VH: EVQVLESGGGLVQPGGSLRLSCVASGFTFSSYAMHWVRQAPGKGLEWVSAISGRGGSTYYADSVKGRFTISRDNSKNTLYLQMNSLRAEDTAVYYCAIIPSLYWYFDLWGRGTLVTVSS VL: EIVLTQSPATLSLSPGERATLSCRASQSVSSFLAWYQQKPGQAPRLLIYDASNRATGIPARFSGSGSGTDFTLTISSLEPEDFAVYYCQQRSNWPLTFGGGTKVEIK
1.24 ng/mL

Let's switch to this binder now.
-- ask Consider the binder Antibody 6003-083 (antibody, human IgG1, V domains shown) VH: EVQLLESGGGLVQPGGSLRLSCAASGFTFSSYAMSWVRQAPGKGLEWVSTISGRGGSTYYADSVKGRFTISRDNSKNTLYLQMNSLRAEDTAVYYCAIVATMYWYFDLWGRGTLVTVSS VL: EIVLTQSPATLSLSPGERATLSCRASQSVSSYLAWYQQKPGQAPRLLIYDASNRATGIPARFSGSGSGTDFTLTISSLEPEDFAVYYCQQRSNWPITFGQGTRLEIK and give its recorded EC50.
-- reply 0.99 ng/mL
